The origin of these recorded values is PubChem BioAssay (NCI).

test system: SF-539 CNS; assay: NCI-60 one-dose screen, 48 h; details: 10 µM unless noted
Compounds without any hit were thinned out: in the full panel of roughly 83,000, 20% have a hit. Activity calls are given as the source filed them. The calls were made as follows: active = growth percent below 10; inactive = the rest.
Give one outcome, nothing more. List: t for active, f for inactive

Use the examples below as a reference point.
Oc1ccccc1/C=N/N=C/c1c(O)ccc2ccccc12 | f
COc1cc(-c2nc3c(c(C)nc4c3nnn4-c3ccccc3)c(=O)o2)cc(OC)c1OC | f
COC(=O)c1ccc2[nH]c(O)c(C(=Nc3ccc(N(C)C(=O)CN4CCN(C)CC4)cc3)c3ccc(C)cc3)c2c1 | t
CCOC(=O)C1=NN(c2ccccc2)C2=NC(=O)/C(=C\c3cn(-c4ccccc4)nc3-c3cc4ccccc4o3)C(=O)N12 | f
CC1(C)C(O)NC(Cl)=C(C#N)C1(C#N)C#N (configuration not stated) | f

Input: Could you check what this test reported for "COc1ccc(CN2C(=O)/C(=C\C(=O)c3ccc(OCCN4CCCC4)cc3)c3ccccc32)cc1" ?
Output: f

Input: Status in this test for COC(=O)C1CC(=O)N(C(=O)Nc2ccc(Cl)cc2Cl)C1 (configuration not stated) ?
Output: f

Input: Write down the call the test reported for this compound. Item: "CC/C(=N\Nc1nc2ccccc2n1C)c1ccccn1"
Output: t

Input: Outcome? COc1ccc(C(=O)N2N=C(c3ccc(Br)cc3)CC2c2cn(-c3ccccc3)nc2-c2ccccc2)cc1 (configuration not stated)
Output: f

Input: Which outcome was entered for the compound "COc1ccc(-c2nc(N)n(C(=S)Nc3ccccc3)n2)cc1" in this test?
Output: f

====

system: M14 melanoma; experiment: NCI-60 one-dose screen, 48 h (100 = growth as untreated, 0 = no growth, -100 = all killed); conditions: 10 µM unless noted
Compounds without any hit were thinned out: in the full panel of roughly 83,000, 20% have a hit.
readout-name: growth (%)
Answer format: numeric, % implied, no suffix.

Worked set:
O=C(/C=C/c1ccc(Cl)cc1)c1ccc(Cl)cc1 | 100
CC(=N\N=C(N)N)/C(=N/N=C(N)N)c1ccccc1 | 88.6
CCC(C)C1NC(=O)C(CCCCN)NC(=O)C(CCCCN)NC(=O)C(CC(C)C)NC(=O)C(CCCCN)NC(=O)C(C(C)CC)NC(=O)C(C(C)C)NC(=O)C(C(C)CC)NC(=O)C(CCCCN)NC(=O)C(CCCCN)NC(=O)C(C)NC(=O)C(CCCCN)NC(=O)C(CC(C)C)NC1=O (stereo not given) | 22.2
COc1ccc(CN2C(=O)/C(=C\C(=O)c3ccc(OCCN4CCCC4)cc3)c3ccccc32)cc1 | 79.6

Input: # growth lookup, item "CCOC(=O)CSSCC(=O)OCC"
Output: 119

====

This section presents molecules with their documented growth values.
system: UACC-257 melanoma; assay: NCI-60 one-dose screen, 48 h (100 = growth as untreated, 0 = no growth, -100 = all killed); conditions: 10 µM unless noted
This is part of a sample that, as a whole, favours compounds with a hit. Of some 83,000 tested, about 20% had one in any assay.
API: value field is a number in %; no unit string.

Some molecules with known growth results, for comparison:
C=CCNC(=S)NNc1ccc([N+](=O)[O-])cn1 | 97.9
CCCCCCCCc1ccc(OCCOCC[N+](C)(C)CC)cc1 (tested in a mixture with another compound) | 12.9

Input: Give recorded growth with UACC-257 melanoma for the following molecule: "Cc1cc2c(-c3nc4ccccc4[nH]3)c(O)c(O)cc2c(O)c1-c1c(C)cc2c(-c3nc4ccccc4[nH]3)c(O)c(O)cc2c1O"
Output: -3.19

Input: # value lookup — system UACC-257 melanoma, readout growth, item CC(=O)N1N=C(c2ccc(Cl)cc2)CC1c1cn(-c2ccccc2)nc1-c1ccc([N+](=O)[O-])cc1 (stereo unspecified)
Output: 106

Input: Notebook: pull reported growth for UACC-257 melanoma, entry "COc1cc(CCNc2cnc3cc(N)cc(N)c3n2)cc(OC)c1"
Output: 111

Input: Please state recorded growth (tested on UACC-257 melanoma) of "CCCNC(=O)Oc1ccc(/C(=C(/CC)Cc2ccccc2)c2ccc(OCCN(CC)CC)cc2)cc1"
Output: 82.6

====

tested on: CAKI-1 renal; test: NCI-60 one-dose screen, 48 h (100 = growth as untreated, 0 = no growth, -100 = all killed); conditions: 10 µM unless noted
This is part of a sample that, as a whole, favours compounds with a hit. Of some 83,000 tested, about 20% had one in any assay.
hey, just use 1 if measured growth is less than 60%, otherwise 0

C[n+]1c2ccccc2c(Nc2ccc(NS(=O)(=O)CCCCN=C(N)N)cc2)c2ccc(N)cc21 | 1
COc1ccc(Cn2cc3c(c2-c2ccccc2)CCc2cnoc2-3)cc1N | 1
CCOP1(=O)CC(C)=C(Cl)C(P(=O)(O)O)C1 (centres undefined) | 0

Input: Hi there! Is growth for "CC(=O)Nc1nc(C)c(C(=O)N/N=C/N2CCOCC2)s1" below 60%, do you know?
Output: 0

Input: Lab note: confirm whether the reported growth for this molecule is below 60%, equality not counting. molecule: "Cc1ccc(C(=O)Nc2ccc(CN3CCN(C)CC3)c(C(F)(F)F)c2)cc1C#Cc1cnc(N)c2ccc(C#N)cc12"
Output: 1

Input: # check: growth < 60% for "CC(C)(C)c1cc(C[P+](c2ccc(Cl)cc2)(c2ccc(Cl)cc2)c2ccc(Cl)cc2)cc(C(C)(C)C)c1O"
Output: 0

Input: Take the molecule "CCCC(CCC)Oc1ccc(CCCC2=C(O)c3ccccc3C(=O)C2=O)cc1" and say whether its growth is less than 60%.
Output: 0

Input: Strictly below 60%: is that where growth of CCC(C)CC(N)O (centres undefined) sits?
Output: 0

Input: Item "CC(C)OC(=O)[C@H](C)N[P@@](=O)(OC[C@@]1(C)O[C@@H](n2cc(F)c(N)nc2=O)C[C@@H]1O[P@](=O)(N[C@@H](C)C(=O)OC(C)C)Oc1ccccc1)Oc1ccccc1" : growth beneath 60%, strictly?
Output: 0

Input: In the record for CCS(=O)(=O)N[C@@H]1O[C@H](COC(C)=O)C(OC(C)=O)[C@H](OC(C)=O)C1OC(C)=O (some centres undefined) , is growth less than 60%?
Output: 0

Input: Item "CCOC(=O)CNS(=O)(=O)CC(=O)c1ccccc1" : growth beneath 60%, strictly?
Output: 0

Input: Is 60% strictly greater than the molecule's reported growth? molecule: CCCCCCCCCCC1OC(C)CC(C)O1 (centres undefined)
Output: 0

Input: growth under 60%? Item: "COc1ccc2cn3c4ccc(O)cc4[nH]c(=O)c3c2c1"
Output: 1

Input: Consider the molecule CCCCCCCCCCCC(=O)OC(C)C(=O)Nc1ccccc1 (centres undefined) . Is its growth strictly less than 60%?
Output: 0

====

tested on: NCI/ADR-RES ovarian; assay: NCI-60 one-dose screen, 48 h; details: 10 µM unless noted
About 83,000 compounds went through this panel and 20% of them were active in at least one assay; those are over-represented in the sample as a whole. Calls of active or inactive are those of the source. How the source made its calls: active means growth percent below 10; inactive means the rest.
Assign a class; possible classes are active, inactive

CC(=O)Nc1ccc(S(=O)(=O)Cl)cc1 | inactive

Input: Called result for "COc1ccc(Cn2cc3c(c2)-c2oncc2CC3)cc1OC"
Output: active

Input: Check the results log: what was the call for "CC(C)CCCCCOC(=O)c1ccccc1SSc1ccccc1C(=O)OCCCCCC(C)C" ?
Output: inactive

====

test system: SK-MEL-28 melanoma; test: NCI-60 one-dose screen, 48 h; settings: 10 µM unless noted
The panel holds about 83,000 compounds, 20% with a hit somewhere; the sample as a whole holds those more often. The source made the active and inactive calls. How the source made its calls: active means growth percent below 10; inactive means the rest.
Use one of these outcomes when replying: active, inactive

Some entries whose results are on file:
C#CCCCCCCC[C@@H]1OC(=O)[C@H]([C@@H](C)CC)NC(=O)[C@H]([C@@H](C)CC)NC(=O)CC(=O)[C@@H]1C | inactive
c1ccc2[nH]c(-c3ccc(OCCCCCOc4ccc(-c5nc6ccccc6[nH]5)cc4)cc3)nc2c1 | active
CN(CCC#N)c1ccc(/C=C(\C#N)c2cccc(C(F)(F)F)c2)cc1 | inactive
Cc1nnc(/N=C2\NC(=O)/C(=C/C=C/c3ccccc3)S2)s1 | inactive
CCCCCCCCCCCCOC(=O)/C=C\C(=O)NC(N)=O | inactive

Input: Call for entry "CCCCCCCCCCCCCCCCCCOP(=O)(O)O" :
Output: inactive

Input: Recorded test outcome, item NC(=O)CC(NC(=O)COc1ccc(Cl)cc1Cl)C(=O)O (stereo not given)
Output: inactive

====

growth: recorded values
tested on: T-47D breast; assay: NCI-60 one-dose screen, 48 h (100 = growth as untreated, 0 = no growth, -100 = all killed); conditions: 10 µM unless noted
This is part of a sample that, as a whole, favours compounds with a hit. Of some 83,000 tested, about 20% had one in any assay. Active and inactive are the calls of the source. The calls were made as follows: active = growth percent below 10; inactive = the rest.

Recorded results for 4 compounds are shown here.
Cc1cc(CSc2ccc(Cl)cc2)ccc1N | 84.1% (inactive)
O=C(Nc1ccccc1)Nc1ccc(Nc2ncnc3sc4c(c23)CCCC4)cc1 | 101% (inactive)
COc1cc2cc3cc4cc(OC)c(OC)cc4c(C)[n+]3cc2cc1OC (tested in a mixture with another compound) | 91.7% (inactive)
COc1ccc(C(O)(c2ccccc2)C(C(=O)O)c2ccccc2)cc1 (stereo not given) | 86% (inactive)

Input: What growth appears in the records for this compound with T-47D breast? "O=C(NC1CCN(Cc2ccccc2)CC1)c1cc(-c2cccnc2)nc2ccc(Cl)cc12"
Output: 45% (inactive)
